- protocolDetails: Pharmacokinetic profile in mice after I.V. injection (LC-MS/MS of plasma, brain, liver, kidney)
- Format: in vivo, mouse
- conditionSummary: male, C57BL/6, mouse, iv; brain, 50 mg/kg I.V.; read-out: Ke (converted)
observedProperty: k el (s⁻¹)

* COc1cc(CC(=O)Nc2cc(C3CCC3)[nH]n2)cc(OC)c1OC | 3.06e-05

###

- protocolDetails: Pharmacokinetic profile in mice after I.V. injection (LC-MS/MS of plasma, brain, liver, kidney)
- Type: in vivo, mouse
- conditionSummary: male, C57BL/6, mouse, iv; brain, 10 mg/kg I.V.; read-out: Clast
observedProperty: concentration at 24 h (ng/mL)

- COc1cc(CC(=O)Nc2cc(C3CCC3)[nH]n2)cc(OC)c1OC: 2.27

###

- protocolDetails: Pharmacokinetic profile in mice after I.V. injection (LC-MS/MS of plasma, brain, liver, kidney)
- Assay type: in vivo, mouse
- conditionSummary: male, C57BL/6, mouse, brain, iv, 100 mg/kg, 100 mg/kg I.V.
- From the text: The wild-type group housed male C57BL/6 mice 10–12 weeks of age were used for all in vivo, ex vivo, and behavioral studies. This age range was selected to be consistent with previous studies of conditional Cdk5 knockout mice ([Plattner et al., 2015]). […] A quantitative determination of 25–106 in mouse plasma and tissue homogenate was accomplished by the use of protein precipitation and high-performance liquid chromatography with tandem mass spectrometry detection (LC-MS/MS). […]
observedProperty: clearance

* COc1cc(CC(=O)Nc2cc(C3CCC3)[nH]n2)cc(OC)c1OC | 295 mL/min

###

- protocolDetails: Pharmacokinetic profile in mice after I.V. injection (LC-MS/MS of plasma, brain, liver, kidney)
- Format: in vivo, mouse
- conditionSummary: male, C57BL/6, mouse, iv; brain, 200 mg/kg I.V.; read-out: Ke (converted)
observedProperty: k el (s⁻¹)

* COc1cc(CC(=O)Nc2cc(C3CCC3)[nH]n2)cc(OC)c1OC | 4.72e-05

###

- protocolDetails: Pharmacokinetic profile in mice after I.V. injection (LC-MS/MS of plasma, brain, liver, kidney)
- Assay type: in vivo, mouse
- conditionSummary: male, C57BL/6, mouse, plasma, iv, 200 mg/kg, plasma, 200 mg/kg I.V.; read-out: Cmax
observedProperty: Cmax (ng/mL)

• COc1cc(CC(=O)Nc2cc(C3CCC3)[nH]n2)cc(OC)c1OC = 2320

###

- protocolDetails: Pharmacokinetic profile in mice after I.V. injection (LC-MS/MS of plasma, brain, liver, kidney)
- Type: in vivo, mouse
- conditionSummary: male, C57BL/6, mouse, iv; kidney, 100 mg/kg I.V.
observedProperty: half-life (min)

- COc1cc(CC(=O)Nc2cc(C3CCC3)[nH]n2)cc(OC)c1OC: 783

###

- protocolDetails: Pharmacokinetic profile in mice after I.V. injection (LC-MS/MS of plasma, brain, liver, kidney)
- Assay type: in vivo, mouse
- conditionSummary: male, C57BL/6, mouse, iv; brain, 100 mg/kg I.V.; read-out: AUC24h
observedProperty: AUC(0-t) (ng·h/mL)

* COc1cc(CC(=O)Nc2cc(C3CCC3)[nH]n2)cc(OC)c1OC [25–106] | 180

###

- protocolDetails: Pharmacokinetic profile in mice after I.V. injection (LC-MS/MS of plasma, brain, liver, kidney)
- Assay type: in vivo, mouse
- conditionSummary: male, C57BL/6, mouse, kidney, iv, 10 mg/kg, kidney, 10 mg/kg I.V.; read-out: Cmax
observedProperty: Cmax (ng/g)

• COc1cc(CC(=O)Nc2cc(C3CCC3)[nH]n2)cc(OC)c1OC = 2950
